Catalogue of variants with associated kcat
B1: glmS ribozyme (parent)
chain: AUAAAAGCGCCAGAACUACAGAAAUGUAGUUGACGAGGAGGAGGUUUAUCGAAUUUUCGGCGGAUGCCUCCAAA

Variants of: B1
Method Description: kcat; higher = faster cleavage; RNA array
Condition Details: with glucosamine-6-phosphate
Variants at the floor of the assay were thinned out.
The figure you give is taken to be in s⁻¹; do not add the unit.

# count of solved cases: 4
INSERT INTO results (ordered_residues, measured_attribute, unit, numeric_result) VALUES
  ('AUAAAAGCGCCAGAACUACAGAAAUGUAGUUGACGAGGAGGAGGUCUAUCGAAUUUUCGGCGGAGGCCUCCAAA [U46C U65G]', 'kcat', 's⁻¹', 0.000138),
  ('AUAAAAGCGCCAGAACUACAGAAAUGUAGUUGACGAGGAGGAGGUCUAUCGAAUUGUCGGCGGAUGCCUCCAAA [U46C U56G]', 'kcat', 's⁻¹', 0.00195),
  ('AUAAAAGCGCCAGAACUACAGAAAUGUAUUUGACGAGGAGGGGGUUUAUCGAAUUUUCGGCGGAUGCCUCCAAA [G29U A42G]', 'kcat', 's⁻¹', 0.00693),
  ('AUAAAAGCGCCAGAACUACAGAAAUGUAGUUGACGAUGAGGAGGUUUAUCGAAUUUUCGGAGGAUGCCUCCAAA [G37U C61A]', 'kcat', 's⁻¹', '1.07e-05');

Kindly consider the entry below.
I'd like to know its kcat. The variant in question is AUAAAAGCGCCCGAACUACAGAAAUGUAGUUGACGAGGAGGAGGUUUAUCGAAUUUUCGGCGGAUGCCUCUAAA [A12C C71U]
0.0215
